Data credit: ChEMBL document CHEMBL6103575

# SYSTEM TESTED: BDNF/NT-3 growth factors receptor (Homo sapiens, UniProt Q16620)
# Sequence (Q16620 whole entry): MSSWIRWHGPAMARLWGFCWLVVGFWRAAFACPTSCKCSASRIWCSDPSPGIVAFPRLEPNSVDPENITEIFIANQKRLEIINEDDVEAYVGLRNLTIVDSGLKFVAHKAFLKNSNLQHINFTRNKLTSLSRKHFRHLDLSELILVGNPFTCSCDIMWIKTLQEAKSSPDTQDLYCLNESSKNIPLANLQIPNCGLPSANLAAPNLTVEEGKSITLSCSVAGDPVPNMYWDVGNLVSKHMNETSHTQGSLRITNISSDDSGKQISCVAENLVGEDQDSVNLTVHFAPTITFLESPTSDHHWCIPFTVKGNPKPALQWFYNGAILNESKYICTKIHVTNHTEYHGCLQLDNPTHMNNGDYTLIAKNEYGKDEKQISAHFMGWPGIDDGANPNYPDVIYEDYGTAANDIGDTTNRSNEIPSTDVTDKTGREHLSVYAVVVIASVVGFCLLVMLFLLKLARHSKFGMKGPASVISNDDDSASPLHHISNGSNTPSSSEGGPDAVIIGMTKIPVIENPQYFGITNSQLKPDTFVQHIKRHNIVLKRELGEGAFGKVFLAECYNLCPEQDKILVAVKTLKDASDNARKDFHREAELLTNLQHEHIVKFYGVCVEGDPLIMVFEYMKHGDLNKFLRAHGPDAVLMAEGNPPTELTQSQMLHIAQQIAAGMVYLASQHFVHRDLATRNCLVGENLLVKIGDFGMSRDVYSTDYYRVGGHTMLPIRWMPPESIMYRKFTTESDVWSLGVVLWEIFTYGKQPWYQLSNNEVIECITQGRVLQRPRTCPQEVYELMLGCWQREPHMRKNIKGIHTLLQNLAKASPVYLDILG
# METHOD SUMMARY: Inhibition of TRKB (unknown origin)
MEASURED PROPERTY: IC50 (nM)

[
  {
    "RECORD SMILES": "COc1cncc(-c2cn[nH]c2/C=C/c2ccc(NC(=O)Nc3cc(C(C)(C)C(F)(F)F)on3)c(Cl)c2)c1",
    "MEASURED PROPERTY": "IC50",
    "VAL": 86.7
  }
]

---

# Tested on: BaF3
# METHOD SUMMARY: Antiproliferative activity against mouse BaF3 cells harbouring CCDC6-RET G810C mutant assessed as inhibition of cell proliferation incubated for 72 hrs by CCK-8 assay
# Format: functional, cell-based
# CONDITION INFO: BaF3, 72 h
pIC50: −log10 of the molar value.
MEASURED PROPERTY: pIC50

[
  {
    "RECORD SMILES": "COc1cncc(-c2cn[nH]c2/C=C/c2ccc(NC(=O)Nc3cc(C(C)(C)C(F)(F)F)on3)c(OC)c2)c1",
    "MEASURED PROPERTY": "pIC50",
    "VAL": 6.39
  },
  {
    "RECORD SMILES": "COc1ccc(-c2c[nH]nc2-c2ccc(NC(=O)Nc3cc(C(C)(C)C(F)(F)F)on3)cc2)cn1",
    "MEASURED PROPERTY": "pIC50",
    "VAL": 6.44
  },
  {
    "RECORD SMILES": "COc1cncc(-c2cn[nH]c2/C=C/c2ccc(NC(=O)Nc3cc(C(C)(C)C(F)(F)F)on3)cc2OC)c1",
    "MEASURED PROPERTY": "pIC50",
    "VAL": 6.15
  },
  {
    "RECORD SMILES": "COc1ccc(-c2cn[nH]c2/C=C/c2ccc(NC(=O)Nc3cc(C(C)(C)C(F)(F)F)on3)cc2)cn1",
    "MEASURED PROPERTY": "pIC50",
    "VAL": 6.93
  },
  {
    "RECORD SMILES": "CC(C)(c1cc(NC(=O)Nc2ccc(/C=C/c3[nH]ncc3-c3cncc(F)c3)cc2)no1)C(F)(F)F",
    "MEASURED PROPERTY": "pIC50",
    "VAL": 7.38
  },
  {
    "RECORD SMILES": "COc1cncc(-c2cn[nH]c2/C=C/c2ccc(NC(=O)Nc3cc(C(C)(C)C(F)(F)F)on3)cc2Cl)c1",
    "MEASURED PROPERTY": "pIC50",
    "VAL": 6.51
  },
  {
    "RECORD SMILES": "CO[C@]1(C(=O)N[C@@H](C)c2ccc(-n3cc(F)cn3)nc2)CC[C@H](c2nc(C)cc(Nc3cc(C)[nH]n3)n2)CC1",
    "MEASURED PROPERTY": "pIC50",
    "VAL": 6.98
  },
  {
    "RECORD SMILES": "COc1ccc(-c2cn[nH]c2CCc2ccc(NC(=O)Nc3cc(C(C)(C)C(F)(F)F)on3)cc2)cn1",
    "MEASURED PROPERTY": "pIC50",
    "VAL": 6.14
  }
]

---

# Test system: BaF3
# METHOD SUMMARY: Antiproliferative activity against mouse BaF3 cells harbouring CCDC6-RET assessed as inhibition of cell proliferation incubated for 72 hrs by CCK-8 assay
# Format: functional, cell-based
# CONDITION INFO: BaF3, 72 h
pIC50: −log10 of the molar value.

[
  {
    "RECORD SMILES": "COc1cncc(-c2cn[nH]c2/C=C/c2ccc(NC(=O)Nc3cc(C(C)(C)C(F)(F)F)on3)cc2F)c1",
    "pIC50": 6.90
  },
  {
    "RECORD SMILES": "CO[C@]1(C(=O)N[C@@H](C)c2ccc(-n3cc(F)cn3)nc2)CC[C@H](c2nc(C)cc(Nc3cc(C)[nH]n3)n2)CC1",
    "pIC50": 8.41
  },
  {
    "RECORD SMILES": "COc1ccc(-c2cn[nH]c2CCc2ccc(NC(=O)Nc3cc(C(C)(C)C(F)(F)F)on3)cc2)cn1",
    "pIC50": 6.10
  },
  {
    "RECORD SMILES": "COc1cncc(-c2cn[nH]c2/C=C/c2ccc(NC(=O)Nc3cc(C(C)(C)C(F)(F)F)on3)c(F)c2)c1",
    "pIC50": 7.91
  },
  {
    "RECORD SMILES": "COc1cncc(-c2cn[nH]c2/C=C/c2ccc(NC(=O)Nc3cc(C(C)(C)C(F)(F)F)on3)c(OC)c2)c1",
    "pIC50": 6.68
  },
  {
    "RECORD SMILES": "COc1cncc(-c2cnn(C)c2/C=C/c2ccc(NC(=O)Nc3cc(C(C)(C)C(F)(F)F)on3)cc2)c1",
    "pIC50": 6.65
  }
]

---

Entries annotated with measured pIC50
# Tested on: BaF3
# METHOD SUMMARY: Antiproliferative activity against mouse BaF3 cells harbouring CCDC6-RET G810C mutant assessed as inhibition of cell proliferation incubated for 72 hrs by CCK-8 assay
# Type: functional, cell-based
# CONDITION INFO: BaF3, 72 h
pIC50: −log10 of the molar value.

[
  {
    "RECORD SMILES": "CNC(=O)c1cncc(-c2cn[nH]c2/C=C/c2ccc(NC(=O)Nc3cc(C(C)(C)C(F)(F)F)on3)cc2)c1",
    "SYSTEM TESTED": "BaF3",
    "pIC50": 6.13
  },
  {
    "RECORD SMILES": "COc1cncc(-c2cn[nH]c2/C=C/c2cccc(NC(=O)Nc3cc(C(C)(C)C(F)(F)F)on3)c2)c1",
    "SYSTEM TESTED": "BaF3",
    "pIC50": 6.11
  },
  {
    "RECORD SMILES": "COc1cc(-c2cn[nH]c2/C=C/c2ccc(NC(=O)Nc3cc(C(C)(C)C(F)(F)F)on3)cc2)ccn1",
    "SYSTEM TESTED": "BaF3",
    "pIC50": 6.92
  },
  {
    "RECORD SMILES": "COc1cncc(-c2cn[nH]c2/C=C/c2ccc(NC(=O)Nc3cc(C(C)(C)C(F)(F)F)on3)c(Cl)c2)c1",
    "SYSTEM TESTED": "BaF3",
    "pIC50": 7.59
  },
  {
    "RECORD SMILES": "COc1cncc(-c2cn[nH]c2/C=C/c2ccc(NC(=O)Nc3cc(C(C)(C)C(F)(F)F)on3)cc2)c1",
    "SYSTEM TESTED": "BaF3",
    "pIC50": 7.34
  },
  {
    "RECORD SMILES": "COC(=O)c1cncc(-c2cn[nH]c2/C=C/c2ccc(NC(=O)Nc3cc(C(C)(C)C(F)(F)F)on3)cc2)c1",
    "SYSTEM TESTED": "BaF3",
    "pIC50": 6.42
  },
  {
    "RECORD SMILES": "COc1cncc(-c2cn[nH]c2/C=C/c2ccc(NC(=O)Nc3cc(C(C)(C)C(F)(F)F)on3)cc2C)c1",
    "SYSTEM TESTED": "BaF3",
    "pIC50": 6.30
  }
]
